The reported measurements were obtained from ChEMBL document CHEMBL1201862.

- Test system: HCC 2998
- ASSAY INFO: NCI tumour cell line growth inhibition, 48 h
Active and inactive are the calls of the source. No stated cut-off is given here; in the data, active = GI50 up to about 1.1 µM and inactive = higher.
Respond with a class label; see label 1 (active), label 0 (inactive)

Here are 5 compounds together with their reported answers.
COMPOUND	CLASS NAME
Nc1ncnc2c1ccn2COC(CO)CO	label 0
N#C/C(N)=C(\C#N)NC(=O)C(=O)N/C(C#N)=C(\N)C#N	label 0
COc1cc2c3c(c4cc(OC)c(OC)cc4c2cc1OC)C(=O)C1CCC(=O)N1C3 (stereo unspecified)	label 0
CCOc1ccc(C(=O)/C=C2/Nc3ccccc3N/C2=C/C(=O)c2ccc(OCC)cc2)cc1	label 0
C[C@H]1[C@H](C)CC[C@]2(C(=O)OC3OC(CO)C(O)C(O)C3O)CC[C@]3(C)C(=CC[C@@H]4[C@@]5(C)C[C@@H](O)[C@@H]6OC(=O)c7cc(O)c(O)c(O)c7-c7c(cc(O)c(O)c7O)C(=O)OC[C@]6(CO)[C@@H]5CC[C@]43C)[C@H]12 (stereo partly specified)	label 0

Could you please tell me the result logged for O=C1c2ccccc2C(=O)N1c1ccc(Cc2ccc(N3C(=O)c4ccccc4C3=O)cc2)cc1 in this assay? label 0

Could you please tell me the result logged for COc1ccc(C2SCC(=O)N2NC(=O)c2ccc(NC(C)=O)cc2)c(OC)c1 (stereo unspecified) in this assay? label 0

Could you please tell me the result logged for CCN(CC)C(=S)SS(=O)(=O)c1cccc(N)c1 in this assay? label 0

Could you please tell me the result logged for CCCCN(CCCC)CCC(O)c1cc2c(Cl)cc(Cl)cc2c2cc(C(F)(F)F)ccc12 (stereo unspecified) in this assay? label 0

Could you please tell me the result logged for O=C(CCN(C(=O)O)S(=O)(=O)c1ccc(NC(=O)c2ccccc2)cc1)NC1CCCCC1 in this assay? label 0

Could you please tell me the result logged for CN(C)c1cccc2c1C(=O)C=CC21c2ccc(N(C)C)c3c(N(C)C)ccc(c23)C(c2ccccc2)C1c1ccccc1 (stereo unspecified) in this assay? label 0

Could you please tell me the result logged for O=C(C/C(=N\NC(=O)C[n+]1ccccc1)C(=O)Nc1nc2ccc([N+](=O)[O-])cc2s1)CC(c1ccccc1)c1c(O)c2ccccc2oc1=O (stereo unspecified) in this assay? label 0

Could you please tell me the result logged for COc1cc(/C=C(\C#N)c2ccccc2)cc(OC)c1 in this assay? label 0

Could you please tell me the result logged for O=C(CSc1nc2ccc(I)cc2c(=O)n1Cc1ccccc1)NNC(=S)Nc1ccccc1 in this assay? label 0

Could you please tell me the result logged for COC(=O)c1nc2c3c(cccc3c1C(=O)OC)Nc1ccccc1-2 in this assay? label 0

Could you please tell me the result logged for N=C(N)SCc1ccc(Cl)cc1Cl.O=[N+]([O-])c1c(O)c(Cl)cc(Cl)c1Cl in this assay? label 0

Could you please tell me the result logged for CN(C)CCCn1cnc2ncccc2c1=O in this assay? label 0

Could you please tell me the result logged for OC(CCN1CCN(CCOC(c2ccccc2)c2ccccc2)CC1)c1ccccc1 (stereo unspecified) in this assay? label 0

Could you please tell me the result logged for COC(=O)[C@H](Cc1ccccc1)NC(=O)N(CCC#N)CCCCN(CCC#N)C(=O)N[C@@H](Cc1ccccc1)C(=O)OC in this assay? label 0

---

Below is a list of entries, each paired with its recorded GI50 value.
- Test system: UACC-62
- ASSAY INFO: NCI tumour cell line growth inhibition, 48 h
Active and inactive are the calls of the source. Rule as the data show it: active = GI50 up to about 1.1 µM and inactive = higher.

Consider the reported GI50 for these compounds:
In [3]: df
Out[3]:
                                   compound  tested_system      recorded_result
0  Cc1cc2c(cc1C)[n+]([O-])c(C(=O)C/C(=N/NC(=O)c1ccccc1O)C(=O)Nc1ccccc1C(C)C)c(C)[n+]2[O-]        UACC-62   68.1 µM (inactive)
1  CC1C(=O)O[B-]2(c3ccccc3)Oc3ccccc3C=[N+]12 (stereo not given)        UACC-62  > 100 µM (inactive)
2  COc1cc([C@@H]2c3cc4c(cc3[C@@H](NC(=O)c3ccc(C(C)=O)cc3)C3COC(=O)[C@@H]32)OCO4)cc(OC)c1O (stereo not given in full)        UACC-62    0.206 µM (active)
3  OC1(c2ccccc2)CSC2=Nc3ccccc3C3CCN1N23 (stereo not given)        UACC-62   18.7 µM (inactive)
4  CCOC(=O)C(c1ccsc1)P(=O)(OCC)OCC (stereo not given)        UACC-62   8.22 µM (inactive)
5  O=C1C(NCCc2ccc(O)c([N+](=O)[O-])c2)=CC(=O)c2[nH]cnc21        UACC-62   20.8 µM (inactive)

Print UACC-62 GI50 for Cc1cc(C)nc(NC(=S)Nc2ccc(Cl)cc2)c1 . > 100 µM (inactive)
